Target: human hERG channels (Homo sapiens (Human), UniProt Q12809)
Sequence (Q12809 whole entry): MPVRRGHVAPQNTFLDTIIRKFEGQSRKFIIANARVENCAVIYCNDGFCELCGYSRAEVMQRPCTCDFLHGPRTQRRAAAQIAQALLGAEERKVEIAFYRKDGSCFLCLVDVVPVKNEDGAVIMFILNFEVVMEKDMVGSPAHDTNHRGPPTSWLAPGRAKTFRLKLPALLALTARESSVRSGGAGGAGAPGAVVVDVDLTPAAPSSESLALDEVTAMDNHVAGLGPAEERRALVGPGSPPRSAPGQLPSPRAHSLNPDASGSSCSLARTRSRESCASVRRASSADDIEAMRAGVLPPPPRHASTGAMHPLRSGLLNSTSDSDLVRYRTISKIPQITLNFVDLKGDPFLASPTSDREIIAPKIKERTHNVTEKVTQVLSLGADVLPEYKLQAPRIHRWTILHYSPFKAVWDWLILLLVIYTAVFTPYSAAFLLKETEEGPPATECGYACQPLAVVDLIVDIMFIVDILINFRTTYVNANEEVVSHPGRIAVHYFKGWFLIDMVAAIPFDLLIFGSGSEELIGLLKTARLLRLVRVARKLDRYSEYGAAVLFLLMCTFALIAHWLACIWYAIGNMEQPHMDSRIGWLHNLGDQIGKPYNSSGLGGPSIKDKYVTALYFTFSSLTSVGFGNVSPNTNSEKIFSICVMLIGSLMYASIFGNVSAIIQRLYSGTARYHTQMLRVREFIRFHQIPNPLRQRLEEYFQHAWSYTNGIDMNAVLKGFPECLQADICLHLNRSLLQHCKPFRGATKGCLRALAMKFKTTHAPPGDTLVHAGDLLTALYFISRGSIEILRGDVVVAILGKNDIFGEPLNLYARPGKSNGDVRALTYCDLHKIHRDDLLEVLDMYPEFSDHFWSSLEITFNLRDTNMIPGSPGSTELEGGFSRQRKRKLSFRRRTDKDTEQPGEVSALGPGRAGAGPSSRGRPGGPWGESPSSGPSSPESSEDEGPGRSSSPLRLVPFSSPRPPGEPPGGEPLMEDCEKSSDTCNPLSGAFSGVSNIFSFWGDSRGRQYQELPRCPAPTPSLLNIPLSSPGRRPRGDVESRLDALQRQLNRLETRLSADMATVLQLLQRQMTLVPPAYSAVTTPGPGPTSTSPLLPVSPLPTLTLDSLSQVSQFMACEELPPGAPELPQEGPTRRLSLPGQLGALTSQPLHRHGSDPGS
Assay: hERG assay (patch clamp, CHO cells)
Type: cell-based
Conditions: (PL); read-out: hERG (nM) (PL)
measured-property: IC50

Worked cases, IC50 given:
{"molecule": "O=C(c1ccc(Cl)cn1)N1CCC(c2ccc(-c3ccccc3C3CC3)cc2CO)C1 (stereo not shown)", "tested-on": "human hERG channels (Homo sapiens (Human), UniProt Q12809)", "measured-property": "IC50", "result": "7290 nM"}
{"molecule": "CC(C)c1ccccc1-c1ccc(C2CCN(C(=O)c3ccc(F)cn3)C2)c(CO)c1 (stereo not shown)", "tested-on": "human hERG channels (Homo sapiens (Human), UniProt Q12809)", "measured-property": "IC50", "result": "7480 nM"}
{"molecule": "CC(C)c1ccccc1Oc1ccc(C2CCN(C(=O)c3ccc(F)cn3)C2)c(CO)c1 (stereo not shown)", "tested-on": "human hERG channels (Homo sapiens (Human), UniProt Q12809)", "measured-property": "IC50", "result": "9650 nM"}

IN: In one line, give reported IC50 of the entry CCc1cncnc1Oc1ccc(C2CCN(C(=O)c3ncccc3Cl)C2)c(CO)c1 (stereo not shown) .
OUT: > 32000 nM

Data provenance: patent US12435061B2
